- target or test system: human kinesin spindle protein KSP/Eg5 (Homo sapiens)
- Construct: The motor domain of the human kinesin spindle protein KSP/Eg5
- Sequence (P52732 18-359 limits assumed): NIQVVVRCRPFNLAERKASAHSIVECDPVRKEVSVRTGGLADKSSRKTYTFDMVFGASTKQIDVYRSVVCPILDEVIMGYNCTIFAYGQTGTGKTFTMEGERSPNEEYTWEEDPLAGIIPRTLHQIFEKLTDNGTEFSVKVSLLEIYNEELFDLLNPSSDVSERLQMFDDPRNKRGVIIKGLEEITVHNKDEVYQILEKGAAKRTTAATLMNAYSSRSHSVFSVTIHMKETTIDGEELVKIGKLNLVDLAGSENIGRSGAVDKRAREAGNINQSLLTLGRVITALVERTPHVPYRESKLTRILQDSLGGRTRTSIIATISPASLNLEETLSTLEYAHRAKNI
- assay notes: Inhibition of the kinesin spindle protein KSP/Eg5 (ATPase, malachite green)
- condition parameters: 10 nM KSP motor domain, 500 μM ATP, 2 h RT
Reported IC50 values follow for various compounds
Numbers only here, please. The scale is nM.

Examples from the recorded data:
{"columns": ["compound", "IC50 (nM)"],
 "data": [
  ["CC(C)(C)[C@H](c1cc(-c2cc(F)ccc2F)cn1Cc1ccccc1)N(CC[C@H](N)C(=O)N[C@@H](CO)C(=O)O)C(=O)CO [Example 201]", 0.179],
  ["C[C@H](NC(=O)CCNC(=O)[C@@H](N)CCN(C(=O)CO)[C@@H](c1nn(-c2cc(F)ccc2F)cc1Cc1ccccc1)C(C)(C)C)C(=O)N[C@@H](CCCNC(N)=O)C(=O)Nc1ccc(N2C(=O)CC(SC[C@H](N)C(=O)O)C2=O)cc1.O=C(O)C(F)(F)F (stereo partly drawn) [Example 132]", 1.65]
]}

Now let's try a different one.
(Q) Suppose we examine the compound CC(C)(C)[C@H](c1nc(-c2cc(F)ccc2F)cn1Cc1ccccc1)N(CC[C@H](N)C(=O)N[C@H]1CCC[C@H]1C(=O)NCCN1C(=O)CC(SC[C@H](N)C(=O)O)C1=O)C(=O)CO (stereo partly drawn) [Example 67] ; what IC50 value has been reported?
(A) 8.07

* * *

- assay notes: Cell permeability, flux assay using Caco-2 cells
- condition parameters: human, Caco-2
test readout: Papp B→A at 2 h (×10⁻⁶ cm/s)
Write the value in ×10⁻⁶ cm/s as a bare number.

Past entries and their recorded results:
{"columns": ["compound", "test readout", "value observed"],
 "data": [
  ["CC(C)(C)[C@H](c1cc(-c2cc(F)ccc2F)cn1Cc1ccccc1)N(CCCN)C(=O)CSCCC(NC(=O)CCOCCOCCOCCOCCNC(=O)CCN1C(=O)CC(SC[C@H](N)C(=O)O)C1=O)C(=O)O.O=C(O)C(F)(F)F (mixture of isomers)", "Papp B→A at 2 h", 0.17],
  ["CC(C)(C)[C@H](c1nc(-c2cc(F)ccc2F)cn1Cc1ccccc1)N(CC[C@H](N)C(=O)NCCNC(=O)CN1C(=O)CC(SC[C@H](N)C(=O)O)C1=O)C(=O)CO.O=C(O)C(F)(F)F (stereo partly shown)", "Papp B→A at 2 h", 1],
  ["CC(C)(C)[C@H](c1nc(-c2cc(F)ccc2F)cn1Cc1ccccc1)N(CC[C@H](N)C(=O)O)C(=O)CO.O=C(O)C(F)(F)F", "Papp B→A at 2 h", 5.5],
  ["CC(C)(C)[C@H](c1nc(-c2cc(F)ccc2F)cn1Cc1ccccc1)N(CC[C@H](N)C(=O)NCCOCCOCCOCCC(=O)O)C(=O)CO.O=C(O)C(F)(F)F", "Papp B→A at 2 h", 28],
  ["CC(C)(C)[C@H](c1nn(-c2cc(F)ccc2F)cc1Cc1ccccc1)N(CC[C@H](N)C(=O)NCCNC(=O)CN1C(=O)CC(SC[C@H](N)C(=O)O)C1=O)C(=O)CO.O=C(O)C(F)(F)F (stereo partly shown)", "Papp B→A at 2 h", 0.9],
  ["CC(C)(C)[C@H](c1cc(-c2cc(F)ccc2F)cn1Cc1ccccc1)N(CC[C@H](N)C(=O)NCCOCCN1C(=O)CC(SC[C@H](N)C(=O)O)C1=O)C(=O)CO.O=C(O)C(F)(F)F (stereo partly shown)", "Papp B→A at 2 h", 2.1],
  ["CC(C)(C)[C@H](c1nc(-c2cc(F)ccc2F)cn1Cc1ccccc1)N(CC[C@H](N)C(=O)NCCOCCN1C(=O)CC(SC[C@H](N)C(=O)O)C1=O)C(=O)CO (stereo partly shown)", "Papp B→A at 2 h", 5],
  ["CC(C)(C)[C@H](c1nc(-c2cc(F)ccc2F)cn1Cc1ccccc1)N(CC[C@H](N)C(=O)NCCN)C(=O)CO.O=C(O)C(F)(F)F.O=C(O)C(F)(F)F", "Papp B→A at 2 h", 20],
  ["CC(C)(C)[C@H](c1nc(-c2cc(F)ccc2F)cn1Cc1ccccc1)N(CCCN)C(=O)CSCCC(NC(=O)CCOCCOCCOCCOCCNC(=O)CCN1C(=O)CC(SC[C@H](N)C(=O)O)C1=O)C(=O)O.O=C(O)C(F)(F)F.O=C(O)C(F)(F)F (mixture of isomers)", "Papp B→A at 2 h", 0.17]
]}

# ---- query compound ----
(Q) If you can, please state the reported Papp B→A at 2 h value of CC(C)(C)[C@H](c1nc(-c2cc(F)ccc2F)cn1Cc1ccccc1)N(CC[C@H](N)C(=O)NCCC(=O)N[C@@H](Cc1ccc(N)cc1)C(=O)O)C(=O)CO.O=C(O)C(F)(F)F.O=C(O)C(F)(F)F .
(A) 2.6
